Entry source: patent US8106055B2

molecular target: bradykinin 1 receptor (B1R) of the rat (Rattus norvegicus); construct: expressed in transfected cells; host or cells: CHO K1 cells; experiment: Functional investigation on the rat bradykinin 1 receptor (B1R), Ca2+ FLIPR assay in CHO K1 rB1R cells; format: cell-based; details: CHO-K1, B1R antagonism rat; test substance 10 μM; Ca2+ FLIPR, CHO K1 rB1R cells; read-out: B1R Ant. r [10 μM] % Inhibition
Sequence (P97583 whole entry): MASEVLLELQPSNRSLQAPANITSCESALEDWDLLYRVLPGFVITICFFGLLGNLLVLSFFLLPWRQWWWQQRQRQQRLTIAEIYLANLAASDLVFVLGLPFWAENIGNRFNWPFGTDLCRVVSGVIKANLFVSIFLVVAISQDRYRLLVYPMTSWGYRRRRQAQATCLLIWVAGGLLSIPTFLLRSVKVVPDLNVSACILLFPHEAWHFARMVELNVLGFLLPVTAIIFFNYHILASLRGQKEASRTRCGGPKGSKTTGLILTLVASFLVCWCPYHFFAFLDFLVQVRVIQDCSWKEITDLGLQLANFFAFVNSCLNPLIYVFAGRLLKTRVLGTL
MEASURED PROPERTY: inhibition at 10 µM (%)
Give the value in % but do not write % after it.

[Q] Find the recorded inhibition at 10 µM belonging to COc1cc(C)c(S(=O)(=O)N2CCC(CCOCC(=O)NC3CCC(C(c4ccc(F)cc4)N(C)C)CC3)CC2)c(C)c1C (centres unmarked) and report it.
[A] 12

[Q] Find the recorded inhibition at 10 µM belonging to COc1cc(C)c(S(=O)(=O)N2CCCC(OCC(=O)NC3CCC(C(CCc4ccccc4)N4CCOCC4)CC3)C2)c(C)c1 (centres unmarked) and report it.
[A] 45

[Q] Find the recorded inhibition at 10 µM belonging to CN(C)C(c1cccs1)C1CCC(NC(=O)COC2CCN(S(=O)(=O)c3cccc(C(F)(F)F)c3)C2)CC1 (centres unmarked) and report it.
[A] 36

[Q] Find the recorded inhibition at 10 µM belonging to COc1cc(C)c(S(=O)(=O)N2CCCCC2COCC(=O)NC2CCC(C(CCc3ccccc3)N3CCOCC3)CC2)c(C)c1 (centres unmarked) and report it.
[A] 100

[Q] Find the recorded inhibition at 10 µM belonging to O=C(COCC1CCCCN1S(=O)(=O)c1c(Cl)cc(Cl)cc1Cl)NC1CCC(C(CCc2ccccc2)N2CCCCC2)CC1 (centres unmarked) and report it.
[A] 62

[Q] Find the recorded inhibition at 10 µM belonging to COc1cc(C)c(S(=O)(=O)N2CCCCC2COCC(=O)NCC2CCC(C(c3ccccc3)N3CCOCC3)CC2)c(C)c1 (centres unmarked) and report it.
[A] 103

[Q] Find the recorded inhibition at 10 µM belonging to COc1cc(C)c(S(=O)(=O)N2CCCC2COCC(=O)NC2CCC(C(c3ccccc3)N3CCCC3)CC2)c(C)c1 (centres unmarked) and report it.
[A] 75

[Q] Find the recorded inhibition at 10 µM belonging to CN1CCN(C(c2ccccc2)C2CCC(NC(=O)COCCN(C)S(=O)(=O)c3c(Cl)cc(Cl)cc3Cl)CC2)CC1 (centres unmarked) and report it.
[A] 64

[Q] Find the recorded inhibition at 10 µM belonging to CN(C)C(c1cccc(F)c1)C1CCC(CCNC(=O)COCCN(C)S(=O)(=O)c2ccc(Cl)cc2Cl)CC1 (centres unmarked) and report it.
[A] 59

[Q] Find the recorded inhibition at 10 µM belonging to COc1cc(C)c(S(=O)(=O)N2CCC(OCC(=O)NCC3CCC(C(CCc4ccccc4)N4CCCC4)CC3)C2)c(C)c1 (centres unmarked) and report it.
[A] 94

[Q] Find the recorded inhibition at 10 µM belonging to CN(C)C(c1ccccc1)C1CCC(NC(=O)COC2CCCN(S(=O)(=O)c3c(Cl)cc(Cl)cc3Cl)C2)CC1 (centres unmarked) and report it.
[A] 34

[Q] Find the recorded inhibition at 10 µM belonging to COc1cc(C)c(S(=O)(=O)N2CCCC2COCC(=O)NC2CCC(C(c3ccccc3)N3CCN(C)CC3)CC2)c(C)c1 (centres unmarked) and report it.
[A] 103

[Q] Find the recorded inhibition at 10 µM belonging to O=C(COC1CCN(S(=O)(=O)c2c(Cl)cc(Cl)cc2Cl)C1)NC1CCC(C(c2ccccc2)N2CCCC2)CC1 (centres unmarked) and report it.
[A] 22

[Q] Find the recorded inhibition at 10 µM belonging to CN1CCN(C(c2ccccc2)C2CCC(NC(=O)COC3CCN(S(=O)(=O)c4c(Cl)cc(Cl)cc4Cl)C3)CC2)CC1 (centres unmarked) and report it.
[A] 29
